system: Acinetobacter baumannii; assay: Antimicrobial activity against Acinetobacter baumannii JVAB01 expressing disrupted open reading frame orf3 mutant deficient in efflux pump CraA by Etest; format: functional
Give MIC for every item shown.
One number for each entry, in µg/mL.

Look over these answered cases.
| COMPOUND STRUCTURE | TARGET DESC | UNIT | ENDPOINT RESULT |
| --- | --- | --- | --- |
| O=C(N[C@H](CO)[C@H](O)c1ccc([N+](=O)[O-])cc1)C(Cl)Cl | Acinetobacter baumannii | µg/mL | 2 |
| CN(C)[C@@H]1C(O)=C(C(N)=O)C(=O)[C@@]2(O)C(O)=C3C(=O)c4c(O)cccc4[C@@](C)(O)[C@H]3C[C@@H]12 | Acinetobacter baumannii | µg/mL | 6 |
| O=C(O)c1cn(C2CC2)c2cc(N3CCNCC3)c(F)cc2c1=O | Acinetobacter baumannii | µg/mL | 0.25 |

Prompt: Would you kindly share the measured MIC for `CCn1cc(C(=O)O)c(=O)c2cc(F)c(N3CCNCC3)cc21` ?
Response: 6
